The measurements presented in this section are drawn from ChEMBL document CHEMBL2385022.

# assay-explanation: Cmax in ICR mouse plasma at 20 mg/kg, po
# Type: ADME, organism-based
# Design: dose 20 mg/kg, route oral

- structure-notation: "COc1cc(/C=C/c2cccc(/C=C/c3ccc(N(C)C)c(OC)c3)c2)ccc1N(C)C"
  Cmax (ng/mL): 3490

###

# assay-explanation: Half life in ICR mouse plasma at 20 mg/kg, po
# Assay type: ADME, organism-based
# Set-up: dose 20 mg/kg, route oral
metric-name: half-life (h)

- structure-notation: "COc1cc(/C=C/c2cccc(/C=C/c3ccc(N(C)C)c(OC)c3)c2)ccc1N(C)C"
  metric-name: "half-life"
  scale-unit: "h"
  numeric-value: 9.4

###

# assay-explanation: Oral bioavailability in ICR mouse at 20 mg/kg
# Format: ADME, organism-based
# condition-info: in vivo
metric-name: bioavailability (%)

- structure-notation: "COc1cc(/C=C/c2cccc(/C=C/c3ccc(N(C)C)c(OC)c3)c2)ccc1N(C)C"
  scale-unit: "%"
  numeric-value: 46.2

###

# assay-explanation: Cmax in ICR mouse brain at 20 mg/kg, po
# Format: ADME, organism-based
# Design: dose 20 mg/kg, route oral
metric-name: Cmax

- structure-notation: "COc1cc(/C=C/c2cccc(/C=C/c3ccc(N(C)C)c(OC)c3)c2)ccc1N(C)C"
  result: "395 ng/mL"

###

# assay-explanation: AUC (0 to 24 hrs) in ICR mouse brain at 20 mg/kg, po
# Assay type: ADME, organism-based
# Set-up: time < 24 hr, dose 20 mg/kg, route oral
metric-name: AUC(0-t) at 24 h (ng·h/mL)

- structure-notation: "COc1cc(/C=C/c2cccc(/C=C/c3ccc(N(C)C)c(OC)c3)c2)ccc1N(C)C"
  numeric-value: 4530

###

# assay-explanation: AUC (0 to 24 hrs) in ICR mouse plasma at 20 mg/kg, po
# Assay type: ADME, organism-based
# Design: time < 24 hr, dose 20 mg/kg, route oral
metric-name: AUC(0-t) at 24 h (ng·h/mL)

- structure-notation: "COc1cc(/C=C/c2cccc(/C=C/c3ccc(N(C)C)c(OC)c3)c2)ccc1N(C)C"
  metric-name: "AUC(0-t) at 24 h"
  scale-unit: "ng·h/mL"
  numeric-value: 29200

###

# assay-explanation: Apparent permeability from apical to basolateral side in mouse bEND.3 /rat C6 co-culture cell model after 1 hr by Transwell assay
# Assay type: ADME
Known Papp A→B at 1 h of a selection of molecules

- structure-notation: "COC(=O)c1ccccc1-c1c2ccc(=N)cc-2oc2cc(N)ccc12.Cl"
  Papp A→B at 1 h: "32 ×10⁻⁶ cm/s"
- structure-notation: "COc1cc(/C=C/c2cccc(/C=C/c3ccc(N(C)C)c(OC)c3)c2)ccc1N(C)C"
  Papp A→B at 1 h: "670 ×10⁻⁶ cm/s"
